test system: M-NFS-60 cells; test: M-NFS-60 cell proliferation assay (resazurin); format: cell-based; details: 67 h incubation
pIC50: −log10 of the molar value.
Observed property: pIC50

// below: answered compounds
Cc1nc(-n2nc(C(C)(C)C)[nH]c2=O)ccc1Oc1ccnc(-c2cn(C)cn2)c1 :: 6.00 to 7.00
COC(C)(C)c1nn(-c2ccc(Oc3ccnc(-c4cnn(C)c4)c3)c(C)n2)c(=O)[nH]1 :: 6.00 to 7.00
Cc1cc(-n2nc(C(C)(C)C)[nH]c2=O)ncc1Oc1ccnc(-c2cnn(C)c2)c1 :: 7.00 to 8.00

Next, consider the following compound.
Problem: Request - read-out pIC50 | tested on M-NFS-60 cells | compound Cc1nc(-n2nc(CC(C)(C)C)[nH]c2=O)ccc1Oc1ccnc(-c2cnn(C)c2)c1
Result: 7.00 to 8.00

---

system: M-NFS-60 cells; assay: M-NFS-60 cell proliferation assay (resazurin); assay type: cell-based; settings: 67 h incubation
pIC50: −log10 of the molar value.
Observed property: pIC50

// below: answered compounds
Cc1ncc(-c2cc(Oc3ccc(-n4nc(C(C)(C)C)[nH]c4=O)nc3C)ccn2)s1 :: 7.00 to 8.00
Cc1nc(-n2nc(C3(C)CC3)[nH]c2=O)ccc1Oc1ccnc(-c2cnn(C)c2)c1 :: 7.00 to 8.00
Cc1nc(-n2nc(C(C)(C)C)oc2=O)ccc1Oc1ccnc(-c2cnn(C)c2)c1 :: 7.00 to 8.00
Cc1cc(-n2nc(C(C)(C)C)[nH]c2=O)nc(C)c1Oc1ccnc(-c2cnn(C)c2)c1 :: 6.00 to 7.00
Cn1cc(-c2cc(Oc3ccc(-n4nc(C(C)(C)C)[nH]c4=O)nc3)ccn2)cn1 :: 7.00 to 8.00

Problem: So what's the measured pIC50 for this one? COCc1nn(-c2ccc(Oc3ccnc(-c4cnn(C)c4)c3)c(C)n2)c(=O)[nH]1
Result: < 6.00

Problem: So what's the measured pIC50 for this one? Cn1cc(-c2cc(Oc3ccc(-n4nc(Cc5ccc(F)cc5)[nH]c4=O)nc3)ccn2)cn1
Result: 7.00 to 8.00

Problem: So what's the measured pIC50 for this one? Cc1nc(-n2nc(-c3ccc(F)cc3)[nH]c2=O)ccc1Oc1ccnc(-c2cnn(C)c2)c1
Result: 7.00 to 8.00

Problem: So what's the measured pIC50 for this one? Cc1ccc(-c2cc(Oc3ccc(-n4nc(C(C)(C)C)[nH]c4=O)nc3C)ccn2)cn1
Result: 7.00 to 8.00

Problem: So what's the measured pIC50 for this one? Cc1nc(-n2nc(C3(C(F)(F)F)CCC3)[nH]c2=O)ccc1Oc1ccnc(-c2cnn(C)c2)c1
Result: 6.00 to 7.00

Problem: So what's the measured pIC50 for this one? Cc1nc(-n2nc(C(C)(C)C)[nH]c2=O)ccc1Oc1ccnc(-c2cnn(C)c2)c1
Result: 7.00 to 8.00

Problem: So what's the measured pIC50 for this one? Cc1nc(-n2nc(CC(C)C)[nH]c2=O)ccc1Oc1ccnc(-c2cnn(C)c2)c1
Result: ≥ 8.00

Problem: So what's the measured pIC50 for this one? Cc1cn(-c2cc(Oc3ccc(-n4nc(C(C)(C)C)[nH]c4=O)nc3C)ccn2)cn1
Result: 6.00 to 7.00

Problem: So what's the measured pIC50 for this one? Cc1cn(-c2cc(Oc3ccc(-n4nc(-c5ccc(F)cc5)[nH]c4=O)nc3C)ccn2)cn1
Result: 6.00 to 7.00

Problem: So what's the measured pIC50 for this one? Cc1nc(-n2nc(C(C)(C)C)[nH]c2=O)ccc1Oc1ccnc(NC(=O)C2CC2)c1
Result: 6.00 to 7.00

---

Reported IC50 values for the following compounds.
target: unphosphorylated PDGFRβ kinase (uPDGFRβ, Seq. ID No. 3) (Homo sapiens, UniProt P09619); assay: uPDGFRβ kinase enzymatic assay (pyruvate kinase/lactate dehydrogenase coupled); settings: ATP 500 μM, rate 1.5 to 2.5 h
Sequence (P09619 557-1106): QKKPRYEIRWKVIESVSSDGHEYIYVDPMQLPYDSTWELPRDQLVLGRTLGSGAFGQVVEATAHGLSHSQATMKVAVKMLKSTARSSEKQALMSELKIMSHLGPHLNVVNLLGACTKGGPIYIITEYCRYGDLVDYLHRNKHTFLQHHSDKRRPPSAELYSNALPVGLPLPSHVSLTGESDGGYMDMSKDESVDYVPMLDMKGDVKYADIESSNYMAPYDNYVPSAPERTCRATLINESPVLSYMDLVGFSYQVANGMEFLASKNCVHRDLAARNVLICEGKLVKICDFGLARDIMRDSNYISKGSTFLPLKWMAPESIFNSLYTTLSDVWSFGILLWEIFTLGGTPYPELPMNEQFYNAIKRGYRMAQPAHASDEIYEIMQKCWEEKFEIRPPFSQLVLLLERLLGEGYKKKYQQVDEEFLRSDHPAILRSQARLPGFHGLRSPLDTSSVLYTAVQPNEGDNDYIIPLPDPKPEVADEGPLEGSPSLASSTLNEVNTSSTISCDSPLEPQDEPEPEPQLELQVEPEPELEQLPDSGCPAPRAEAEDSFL

Cc1nc(-n2nc(C3CC3)[nH]c2=O)ccc1Oc1ccnc(-c2cnn(C)c2)c1 :: > 1 µM
Cc1nc(-n2nc(C3CCCCC3)[nH]c2=O)ccc1Oc1ccnc(-c2cnn(C)c2)c1 :: 0.1 to 1 µM

Problem: So what's the measured IC50 for this one? Cc1nc(-n2nc(C(C)(C)C)[nH]c2=O)ccc1Oc1ccnc(NC(=O)C2CC2)c1
Result: > 1 µM

Problem: So what's the measured IC50 for this one? Cc1cc(-n2nc(C(C)(C)C)[nH]c2=O)ncc1Oc1ccnc(-c2cnn(C)c2)c1
Result: 0.1 to 1 µM

Problem: So what's the measured IC50 for this one? COCC(C)(C)c1nn(-c2ccc(Oc3ccnc(-c4cnn(C)c4)c3)c(C)n2)c(=O)[nH]1
Result: > 1 µM

Problem: So what's the measured IC50 for this one? Cc1nc(-n2nc(C(C)(C)C)[nH]c2=O)ccc1Oc1ccnc(-c2cnco2)c1
Result: > 1 µM

---

molecular target: unphosphorylated c-KIT kinase (uKIT, Seq. ID no. 2) (Homo sapiens); construct: uKit with N-terminal GST fusion used for screening; test: uKit kinase enzymatic assay (pyruvate kinase/lactate dehydrogenase coupled); type: biochemical; details: ATP 2000 μM, rate 3 to 4 h
pIC50: −log10 of the molar value.
Observed property: pIC50

// below: answered compounds
Cc1nc(-n2nc(C(C)(C)C)[nH]c2=O)ccc1Oc1ccnc(-c2cnn(C)c2)c1 [Example 7] :: 6.00 to 7.00
Cc1nc(-n2nc(Cc3ccc(F)cc3)[nH]c2=O)ccc1Oc1ccnc(-c2cnn(C)c2)c1 [Example 1] :: 6.00 to 7.00
Cc1nc(-n2nc(C(C)(C)C)[nH]c2=O)ccc1Oc1ccnc(NC(=O)C2CC2)c1 [Example 45] :: < 6.00
Cc1nc(-n2nc(C(C)C)[nH]c2=O)ccc1Oc1ccnc(-c2cnn(C)c2)c1 [Example 5] :: 6.00 to 7.00
Cc1nc(-n2nc(-c3ccc(F)cc3)[nH]c2=O)ccc1Oc1ccnc(-c2cnn(C)c2)c1 [Example 28] :: 7.00 to 8.00

Problem: So what's the measured pIC50 for this one? Cc1nc(-n2nc(C(C)(C)C)[nH]c2=O)ccc1Oc1ccnc(NC(=O)C2CCN(C)CC2)c1 [Example 21]
Result: < 6.00

Problem: So what's the measured pIC50 for this one? Cc1cc(-c2cc(Oc3ccc(-n4nc(C(C)(C)C)[nH]c4=O)nc3C)ccn2)ccn1 [Example 9]
Result: 6.00 to 7.00

Problem: So what's the measured pIC50 for this one? Cc1ccc(-c2cc(Oc3ccc(-n4nc(C(C)(C)C)[nH]c4=O)nc3C)ccn2)cn1 [Example 10]
Result: < 6.00

---

target: unphosphorylated c-KIT kinase (uKIT, Seq. ID no. 2) (Homo sapiens, UniProt P10721); construct: uKit with N-terminal GST fusion used for screening; assay: uKit kinase enzymatic assay (pyruvate kinase/lactate dehydrogenase coupled); settings: ATP 2000 μM, rate 3 to 4 h
Sequence (P10721 with tags, fused parts or gaps): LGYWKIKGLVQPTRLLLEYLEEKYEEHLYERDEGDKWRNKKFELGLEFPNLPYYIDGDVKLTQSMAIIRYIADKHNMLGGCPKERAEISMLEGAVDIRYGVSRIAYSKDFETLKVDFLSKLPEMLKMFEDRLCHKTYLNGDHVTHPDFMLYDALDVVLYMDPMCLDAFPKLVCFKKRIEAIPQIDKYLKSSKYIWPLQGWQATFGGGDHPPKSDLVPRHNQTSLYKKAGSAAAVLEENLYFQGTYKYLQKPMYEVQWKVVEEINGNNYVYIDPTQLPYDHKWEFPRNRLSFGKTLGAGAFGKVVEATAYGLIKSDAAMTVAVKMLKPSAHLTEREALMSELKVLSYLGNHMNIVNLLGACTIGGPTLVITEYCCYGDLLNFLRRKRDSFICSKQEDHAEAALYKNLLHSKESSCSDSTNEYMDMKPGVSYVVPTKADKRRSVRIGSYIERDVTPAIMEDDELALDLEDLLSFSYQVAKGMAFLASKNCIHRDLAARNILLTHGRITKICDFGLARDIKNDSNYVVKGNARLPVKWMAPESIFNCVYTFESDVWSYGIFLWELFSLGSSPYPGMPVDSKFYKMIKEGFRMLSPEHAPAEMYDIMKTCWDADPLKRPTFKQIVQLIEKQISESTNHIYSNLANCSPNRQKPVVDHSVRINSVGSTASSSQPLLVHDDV
pIC50: −log10 of the molar value.
Reported pIC50 values for the following molecules.

// below: answered molecules
Cc1nc(-n2nc(C(C)(C)C)oc2=O)ccc1Oc1ccnc(-c2cnn(C)c2)c1 :: 6.00 to 7.00
COCc1nn(-c2ccc(Oc3ccnc(-c4cnn(C)c4)c3)c(C)n2)c(=O)[nH]1 :: < 6.00
Cc1ncc(-c2cc(Oc3ccc(-n4nc(C(C)(C)C)[nH]c4=O)nc3C)ccn2)s1 :: 6.00 to 7.00
Cc1nc(-n2nc(C3CCCCC3)[nH]c2=O)ccc1Oc1ccnc(-c2cnn(C)c2)c1 :: 7.00 to 8.00

Next, consider the following molecule.
Problem: So what's the measured pIC50 for this one? Cc1nc(-n2nc(C(C)(C)C)[nH]c2=O)ccc1Oc1ccnc(-c2ccc(C3CCN(C)CC3)cc2)c1
Result: 7.00 to 8.00

---

Reported IC50 values for the following molecules.
test system: phospho-FMS in THP-1 cells; assay: Phospho-FMS ELISA assay in THP-1 cells; assay type: cell-based; details: Homo sapiens, 4 h compound, M-CSF stimulation 5 min, read-out: pFMS inhibition in THP-1 cells

Cc1cc(-n2nc(C(C)(C)C)[nH]c2=O)ncc1Oc1ccnc(-c2cnn(C)c2)c1 :: 10 to 100 nM
Cc1nc(-n2nc(C3(C(F)(F)F)CCC3)[nH]c2=O)ccc1Oc1ccnc(-c2cnn(C)c2)c1 :: 100 to 1000 nM
Cc1nc(-n2cc(C(C)(C)C)[nH]c2=O)ccc1Oc1ccnc(-c2cnn(C)c2)c1 :: 10 to 100 nM
COCC(C)(C)c1nn(-c2ccc(Oc3ccnc(-c4cnn(C)c4)c3)c(C)n2)c(=O)[nH]1 :: 100 to 1000 nM
CCn1cc(-c2cc(Oc3ccc(-n4nc(C(C)(C)C)[nH]c4=O)nc3C)ccn2)cn1 :: 100 to 1000 nM

Problem: So what's the measured IC50 for this one? Cc1nc(-n2nc(C(C)C)[nH]c2=O)ccc1Oc1ccnc(-c2cnn(C)c2)c1
Result: 10 to 100 nM

Problem: So what's the measured IC50 for this one? Cc1nc(-n2nc(C(C)(C)C)[nH]c2=O)ccc1Oc1cc(-c2cnn(C)c2)ncn1
Result: 10 to 100 nM

Problem: So what's the measured IC50 for this one? Cn1cc(-c2cc(Oc3ccc(-n4nc(Cc5ccc(F)cc5)[nH]c4=O)nc3)ccn2)cn1
Result: 10 to 100 nM
